Values from patent US20240199746A1

system under test: T1, Ax1 protein, extracellular domain (human, UniProt P30530 26-451)
T1 construct: extracellular domain; also called Axl; Ark
T1 sequence (looked up): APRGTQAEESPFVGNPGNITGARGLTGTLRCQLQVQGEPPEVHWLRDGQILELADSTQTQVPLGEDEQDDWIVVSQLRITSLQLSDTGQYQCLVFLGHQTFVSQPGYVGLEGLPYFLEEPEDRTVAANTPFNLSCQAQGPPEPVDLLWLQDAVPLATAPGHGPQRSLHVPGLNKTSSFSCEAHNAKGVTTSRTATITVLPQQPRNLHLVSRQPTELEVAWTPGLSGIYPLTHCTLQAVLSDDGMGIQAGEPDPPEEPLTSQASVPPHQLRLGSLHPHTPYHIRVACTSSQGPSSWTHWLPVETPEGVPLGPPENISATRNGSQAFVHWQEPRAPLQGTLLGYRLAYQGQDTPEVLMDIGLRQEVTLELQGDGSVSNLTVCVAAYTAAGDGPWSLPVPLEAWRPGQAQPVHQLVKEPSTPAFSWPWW
measurement notes: ELISA, mutant diluted 1:9
property measured: Affinity ELISA CPE mutant ratio (1:9, pH 6.0/7.4)
Answer with the value's number alone.

Using the record for HC-S103D (antibody, V domains shown, CPE single point mutant) VH: EVQLVQSGAEVKKPGATVKISCKVSGYSFTGHTMNWIRQPPGKGLEWIGLIKPSNGGTSYNQKFKGRVTISADKSISTAYLQWSSLKASDTAMYYCAHGHYEDYFAMDYWGQGTLVTVSS VL: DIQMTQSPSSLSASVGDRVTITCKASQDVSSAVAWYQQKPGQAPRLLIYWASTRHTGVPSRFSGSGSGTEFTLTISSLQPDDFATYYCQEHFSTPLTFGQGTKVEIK , report its Affinity ELISA CPE mutant ratio (1:9, pH 6.0/7.4). 2.23

Quick one: Affinity ELISA CPE mutant ratio (1:9, pH 6.0/7.4) of HC-T030A (antibody, V domains shown, CPE single point mutant) VH: EVQLVQSGAEVKKPGATVKISCKVSGYSFAGHTMNWIRQPPGKGLEWIGLIKPSNGGTSYNQKFKGRVTISADKSISTAYLQWSSLKASDTAMYYCAHGHYESYFAMDYWGQGTLVTVSS VL: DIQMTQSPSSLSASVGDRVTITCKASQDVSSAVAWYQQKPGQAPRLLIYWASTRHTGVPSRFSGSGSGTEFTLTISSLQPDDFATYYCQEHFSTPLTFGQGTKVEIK ? 1.76

Which Affinity ELISA CPE mutant ratio (1:9, pH 6.0/7.4) value is on record for LC-T097I (antibody, V domains shown, CPE single point mutant) VH: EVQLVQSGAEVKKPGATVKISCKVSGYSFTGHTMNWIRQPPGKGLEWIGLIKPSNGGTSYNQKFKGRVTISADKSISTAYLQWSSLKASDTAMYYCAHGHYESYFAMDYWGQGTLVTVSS VL: DIQMTQSPSSLSASVGDRVTITCKASQDVSSAVAWYQQKPGQAPRLLIYWASTRHTGVPSRFSGSGSGTEFTLTISSLQPDDFATYYCQEHFSTPLIFGQGTKVEIK ? 4.05

Could you tell me which Affinity ELISA CPE mutant ratio (1:9, pH 6.0/7.4) is on file for HC-M107F (antibody, V domains shown, CPE single point mutant) VH: EVQLVQSGAEVKKPGATVKISCKVSGYSFTGHTMNWIRQPPGKGLEWIGLIKPSNGGTSYNQKFKGRVTISADKSISTAYLQWSSLKASDTAMYYCAHGHYESYFAFDYWGQGTLVTVSS VL: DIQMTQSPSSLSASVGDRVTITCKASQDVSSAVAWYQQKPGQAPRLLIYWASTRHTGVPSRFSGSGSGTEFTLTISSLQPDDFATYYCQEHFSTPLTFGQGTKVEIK ? 1.09

Would you mind telling me what Affinity ELISA CPE mutant ratio (1:9, pH 6.0/7.4) value was observed for LC-P095T (antibody, V domains shown, CPE single point mutant) VH: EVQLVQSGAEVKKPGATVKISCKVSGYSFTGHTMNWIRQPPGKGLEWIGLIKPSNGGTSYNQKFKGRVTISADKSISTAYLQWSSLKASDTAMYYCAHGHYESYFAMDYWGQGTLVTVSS VL: DIQMTQSPSSLSASVGDRVTITCKASQDVSSAVAWYQQKPGQAPRLLIYWASTRHTGVPSRFSGSGSGTEFTLTISSLQPDDFATYYCQEHFSTTLTFGQGTKVEIK ? 2.09
